assay: Cytotoxicity against human Lipo cells after 96 hrs by SRB assay
Assay type: functional, cell-based
assayConditions: lipo
Documented IC50 across a set of compounds
Answer in µM, number only, no unit symbol.

# molecule, IC50 (µM)
rows = [
    ("COC(=O)[C@@]1(C)CC[C@]2(C)CC[C@]3(C)C(=CC(=O)[C@@H]4[C@@]5(C)CC[C@H](OC(=O)CCN)C(C)(C)[C@@H]5CC[C@]43C)[C@@H]2C1", 3.55),
]

// sample `COC(=O)[C@@]1(C)CC[C@]2(C)CC[C@]3(C)C(=CC(=O)[C@@H]4[C@@]5(C)CC[C@H](OC(=O)[C@H](C)N)C(C)(C)[C@@H]5CC[C@]43C)[C@@H]2C1` , its IC50 was 3.52

// sample `COC(=O)[C@@]1(C)CC[C@]2(C)CC[C@]3(C)C(=CC(=O)[C@@H]4[C@@]5(C)CC[C@H](OC(=O)CN)C(C)(C)[C@@H]5CC[C@]43C)[C@@H]2C1` , its IC50 was 5.92

###

Test system: A549
assay: Cytotoxicity against human A549 cells after 96 hrs by SRB assay
Assay type: functional, cell-based
assayConditions: Homo sapiens, A549, 96 h
recordedMetric: pIC50
Answer as the number alone; pIC50 is minus log10 of concentration in mol/L.

Answered cases to consult:
# compound, pIC50
records = [
    ("COC(=O)[C@@]1(C)CC[C@]2(C)CC[C@]3(C)C(=CC(=O)[C@@H]4[C@@]5(C)CC[C@H](OC(=O)CCN)C(C)(C)[C@@H]5CC[C@]43C)[C@@H]2C1", 5.62),
    ("CCOC(=O)[C@@]1(C)CC[C@]2(C)CC[C@]3(C)C(=CC(=O)[C@@H]4[C@@]5(C)CC[C@H](OC(=O)CCN)C(C)(C)[C@@H]5CC[C@]43C)[C@@H]2C1", 5.66),
    ("CCOC(=O)[C@@]1(C)CC[C@]2(C)CC[C@]3(C)C(=CC(=O)[C@@H]4[C@@]5(C)CC[C@H](O)C(C)(C)[C@@H]5CC[C@]43C)[C@@H]2C1", 4.64),
    ("CC1(C)[C@@H](O)CC[C@]2(C)[C@H]3C(=O)C=C4[C@@H]5C[C@@](C)(C(=O)O)CC[C@]5(C)CC[C@@]4(C)[C@]3(C)CC[C@@H]12 [ENOXOLONE]", 4.08),
    ("COC(=O)[C@@]1(C)CC[C@]2(C)CC[C@]3(C)C(=CC(=O)[C@@H]4[C@@]5(C)CC[C@H](O)C(C)(C)[C@@H]5CC[C@]43C)[C@@H]2C1", 4.63),
]

// sample `CCOC(=O)[C@@]1(C)CC[C@]2(C)CC[C@]3(C)C(=CC(=O)[C@@H]4[C@@]5(C)CC[C@H](OC(=O)[C@H](C)N)C(C)(C)[C@@H]5CC[C@]43C)[C@@H]2C1` , its pIC50 was 5.46

// sample `COC(=O)[C@@]1(C)CC[C@]2(C)CC[C@]3(C)C(=CC(=O)[C@@H]4[C@@]5(C)CC[C@H](OC(=O)[C@H](C)N)C(C)(C)[C@@H]5CC[C@]43C)[C@@H]2C1` , its pIC50 was 5.56

// sample `CCOC(=O)[C@@]1(C)CC[C@]2(C)CC[C@]3(C)C(=CC(=O)[C@@H]4[C@@]5(C)CC[C@H](OC(=O)[C@@H](C)N)C(C)(C)[C@@H]5CC[C@]43C)[C@@H]2C1` , its pIC50 was 5.36

###

System: DLD-1
assay: Cytotoxicity against human DLD1 cells after 96 hrs by SRB assay
Assay type: functional, cell-based
assayConditions: Homo sapiens, DLD-1, 96 h
Rule: IC50 below 5 µM gives Fulfilled, anything at or above gives Not fulfilled.

# molecule, labelClass
records = [
    ("CCOC(=O)[C@@]1(C)CC[C@]2(C)CC[C@]3(C)C(=CC(=O)[C@@H]4[C@@]5(C)CC[C@H](OC(=O)CCN)C(C)(C)[C@@H]5CC[C@]43C)[C@@H]2C1", "Fulfilled"),
    ("CC(C)OC(=O)[C@@]1(C)CC[C@]2(C)CC[C@]3(C)C(=CC(=O)[C@@H]4[C@@]5(C)CC[C@H](OC(=O)[C@H](C)N)C(C)(C)[C@@H]5CC[C@]43C)[C@@H]2C1", "Not fulfilled"),
    ("CCOC(=O)[C@@]1(C)CC[C@]2(C)CC[C@]3(C)C(=CC(=O)[C@@H]4[C@@]5(C)CC[C@H](O)C(C)(C)[C@@H]5CC[C@]43C)[C@@H]2C1", "Not fulfilled"),
    ("COC(=O)[C@@]1(C)CC[C@]2(C)CC[C@]3(C)C(=CC(=O)[C@@H]4[C@@]5(C)CC[C@H](OC(=O)[C@H](C)N)C(C)(C)[C@@H]5CC[C@]43C)[C@@H]2C1", "Fulfilled"),
    ("CC1(C)[C@@H](OC(=O)CN)CC[C@]2(C)[C@H]3C(=O)C=C4[C@@H]5C[C@@](C)(C(=O)O)CC[C@]5(C)CC[C@@]4(C)[C@]3(C)CC[C@@H]12", "Not fulfilled"),
    ("C[C@H](N)C(=O)O[C@H]1CC[C@]2(C)[C@H]3C(=O)C=C4[C@@H]5C[C@@](C)(C(=O)O)CC[C@]5(C)CC[C@@]4(C)[C@]3(C)CC[C@H]2C1(C)C", "Not fulfilled"),
    ("COC(=O)[C@@]1(C)CC[C@]2(C)CC[C@]3(C)C(=CC(=O)[C@@H]4[C@@]5(C)CC[C@H](O)C(C)(C)[C@@H]5CC[C@]43C)[C@@H]2C1", "Not fulfilled"),
    ("CC1(C)[C@@H](O)CC[C@]2(C)[C@H]3C(=O)C=C4[C@@H]5C[C@@](C)(C(=O)O)CC[C@]5(C)CC[C@@]4(C)[C@]3(C)CC[C@@H]12", "Not fulfilled"),
]

Qu. Is 5 µM strictly greater than the molecule's reported IC50? molecule: `CCOC(=O)[C@@]1(C)CC[C@]2(C)CC[C@]3(C)C(=CC(=O)[C@@H]4[C@@]5(C)CC[C@H](OC(=O)CN)C(C)(C)[C@@H]5CC[C@]43C)[C@@H]2C1`
Ans. Not fulfilled

Qu. Is 5 µM strictly greater than the molecule's reported IC50? molecule: `COC(=O)[C@@]1(C)CC[C@]2(C)CC[C@]3(C)C(=CC(=O)[C@@H]4[C@@]5(C)CC[C@H](OC(=O)[C@@H](C)N)C(C)(C)[C@@H]5CC[C@]43C)[C@@H]2C1`
Ans. Fulfilled

###

Test system: A2780
assay: Cytotoxicity against human A2780 cells after 96 hrs by SRB assay
Type: functional, cell-based
assayConditions: a2780
recordedMetric: IC50 (nM)
Answer in nM, number only, no unit symbol.

// sample `COC(=O)[C@@]1(C)CC[C@]2(C)CC[C@]3(C)C(=CC(=O)[C@@H]4[C@@]5(C)CC[C@H](OC(=O)CCN)C(C)(C)[C@@H]5CC[C@]43C)[C@@H]2C1` , its IC50 was 1560

// sample `COC(=O)[C@@]1(C)CC[C@]2(C)CC[C@]3(C)C(=CC(=O)[C@@H]4[C@@]5(C)CC[C@H](OC(=O)CN)C(C)(C)[C@@H]5CC[C@]43C)[C@@H]2C1` , its IC50 was 4320

// sample `COC(=O)[C@@]1(C)CC[C@]2(C)CC[C@]3(C)C(=CC(=O)[C@@H]4[C@@]5(C)CC[C@H](OC(=O)[C@H](C)N)C(C)(C)[C@@H]5CC[C@]43C)[C@@H]2C1` , its IC50 was 2310

###

Tested on: HCT-8
assay: Cytotoxicity against human HCT8 cells after 96 hrs by SRB assay
Assay type: functional, cell-based
assayConditions: HCT-8, 96 h
Documented pIC50 across a set of compounds
Answer as the number alone; pIC50 is minus log10 of concentration in mol/L.

Answered cases to consult:
# molecule, experimentalResult
records = [
    ("CCOC(=O)[C@@]1(C)CC[C@]2(C)CC[C@]3(C)C(=CC(=O)[C@@H]4[C@@]5(C)CC[C@H](O)C(C)(C)[C@@H]5CC[C@]43C)[C@@H]2C1", 4.36),
    ("CC(C)OC(=O)[C@@]1(C)CC[C@]2(C)CC[C@]3(C)C(=CC(=O)[C@@H]4[C@@]5(C)CC[C@H](O)C(C)(C)[C@@H]5CC[C@]43C)[C@@H]2C1", 4.62),
]

Proceed to the following item.
// sample `CCOC(=O)[C@@]1(C)CC[C@]2(C)CC[C@]3(C)C(=CC(=O)[C@@H]4[C@@]5(C)CC[C@H](OC(=O)[C@H](C)N)C(C)(C)[C@@H]5CC[C@]43C)[C@@H]2C1` , its pIC50 was 5.66

###

Documented IC50 across a set of compounds
Test system: DLD-1
assay: Cytotoxicity against human DLD1 cells after 96 hrs by SRB assay
Format: functional, cell-based
assayConditions: Homo sapiens, DLD-1, 96 h
Answer in µM, number only, no unit symbol.

// sample `CC1(C)[C@@H](OC(=O)CN)CC[C@]2(C)[C@H]3C(=O)C=C4[C@@H]5C[C@@](C)(C(=O)OCc6ccccc6)CC[C@]5(C)CC[C@@]4(C)[C@]3(C)CC[C@@H]12` , its IC50 was 4.54

// sample `COC(=O)[C@@]1(C)CC[C@]2(C)CC[C@]3(C)C(=CC(=O)[C@@H]4[C@@]5(C)CC[C@H](OC(=O)CN)C(C)(C)[C@@H]5CC[C@]43C)[C@@H]2C1` , its IC50 was 8.59
